Source: paper PMC9811682

# Assay Target: BChE (EC 3.1.1.8, from equine serum) (Equus caballus, UniProt P81908)
# Construct: BChE (EC 3.1.1.8, from equine serum); purchased Aladdin (Shanghai, China); host or cells: equine serum
# Sequence (P81908 whole entry): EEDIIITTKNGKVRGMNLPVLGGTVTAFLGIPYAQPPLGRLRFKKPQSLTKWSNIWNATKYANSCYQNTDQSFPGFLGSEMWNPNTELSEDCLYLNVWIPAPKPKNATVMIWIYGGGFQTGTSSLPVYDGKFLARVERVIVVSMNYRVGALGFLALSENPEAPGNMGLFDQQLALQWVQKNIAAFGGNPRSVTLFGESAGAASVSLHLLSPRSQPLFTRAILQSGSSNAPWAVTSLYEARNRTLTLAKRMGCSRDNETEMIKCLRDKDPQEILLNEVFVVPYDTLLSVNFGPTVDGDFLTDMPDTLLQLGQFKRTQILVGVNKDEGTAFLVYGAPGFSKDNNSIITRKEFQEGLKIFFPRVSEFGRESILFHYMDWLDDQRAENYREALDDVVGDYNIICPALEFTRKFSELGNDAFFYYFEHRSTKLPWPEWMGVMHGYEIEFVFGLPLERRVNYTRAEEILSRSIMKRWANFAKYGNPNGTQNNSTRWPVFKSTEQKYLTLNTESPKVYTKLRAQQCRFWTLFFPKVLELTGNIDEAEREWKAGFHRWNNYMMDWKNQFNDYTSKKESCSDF
# Experiment Description: biochemical
# Assay type: biochemical
# Run Parameters: tested at 100 μM, triplicate
Readout Name: BChE IR, % (%)

# Compound, Assay Target, Readout Name, Result Unit, Numeric Readout
records = [
    ("COc1ccc2c3c1O[C@H]1C[C@@H](O)C=C[C@@]31CCN(C)C2 [Galantamine, reference compound]", "BChE (EC 3.1.1.8, from equine serum) (Equus caballus, UniProt P81908)", "BChE IR, %", "%", 72.4),
    ("COC(=O)C1(Cc2ccc3c(c2)CC(C(C)(C)O)O3)OC(=O)C(O)=C1c1ccc(O)cc1 (stereo not drawn)", "BChE (EC 3.1.1.8, from equine serum) (Equus caballus, UniProt P81908)", "BChE IR, %", "%", 33.5),
    ("COC(=O)C1(Cc2ccc(O)c(CC3OC3(C)C)c2)OC(=O)C(O)=C1c1ccc(O)cc1 (stereo not drawn)", "BChE (EC 3.1.1.8, from equine serum) (Equus caballus, UniProt P81908)", "BChE IR, %", "%", -12.3),
]
